Entry source: paper PMC7237442

Target: rat P2X2 (Rattus norvegicus, UniProt P49653, T184I)
Construct: T184I rP2X2::GFP
Sequence (P49653 1-472 T184I): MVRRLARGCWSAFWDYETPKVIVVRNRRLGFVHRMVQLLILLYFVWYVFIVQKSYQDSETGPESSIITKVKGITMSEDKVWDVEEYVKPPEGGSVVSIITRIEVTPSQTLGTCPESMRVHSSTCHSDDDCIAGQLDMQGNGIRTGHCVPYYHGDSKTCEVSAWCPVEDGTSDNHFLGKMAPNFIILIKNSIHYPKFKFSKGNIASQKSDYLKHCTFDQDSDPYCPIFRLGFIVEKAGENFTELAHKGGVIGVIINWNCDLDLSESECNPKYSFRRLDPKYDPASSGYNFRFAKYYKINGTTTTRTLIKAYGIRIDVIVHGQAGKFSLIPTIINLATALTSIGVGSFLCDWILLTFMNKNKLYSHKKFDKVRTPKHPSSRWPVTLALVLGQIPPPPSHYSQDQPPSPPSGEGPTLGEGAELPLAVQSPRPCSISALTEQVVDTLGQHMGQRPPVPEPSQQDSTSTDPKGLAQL
Assay: action potential recording from Drosophila taste neurons expressing the mutant
observable: EC50

> print(dat)
                                   molecule                                    system  result
1  Nc1ncnc2c1ncn2[C@@H]1O[C@H](COP(=O)(O)OP(=O)(O)OP(=O)(O)O)[C@@H](O)[C@H]1O [ATP]  rat P2X2 (Rattus norvegicus, UniProt P49653, T184I)  145 µM

###

molecular target: rat P2X2 (Rattus norvegicus, UniProt P49653); construct: gene P2rx2; rat P2X2 with C-terminal mCherry fusion; assay: action potential recording from Drosophila taste neurons expressing the receptor; also whole-cell voltage clamp in HEK […] cells
pEC50: −log10 of the molar value.
observable: pEC50

> print(dat)
                                   compound  observable  quantitative.readout
1  Nc1ncnc2c1ncn2[C@@H]1O[C@H](COP(=O)(O)OP(=O)(O)OP(=O)(O)O)[C@@H](O)[C@H]1O [ATP]       pEC50                  5.06

###

target: rat P2X2 (Rattus norvegicus, UniProt P49653); construct: gene P2rx2; rat P2X2 with C-terminal mCherry fusion; assay: action potential recording from Drosophila taste neurons; confirmed by whole-cell voltage clamp in HEK […] cells at […]
pEC50: −log10 of the molar value.
observable: pEC50

> print(dat)
                                   molecule                                    system  quantitative.readout
1  Nc1nc(F)nc2c1ncn2[C@@H]1O[C@H](COP(=O)(O)OP(=O)(O)OP(=O)(O)O)[C@@H](O)[C@H]1O [2F-ATP]  rat P2X2 (Rattus norvegicus, UniProt P49653)                  4.76
